The measured values listed here are drawn from the RNAGym collection of RNA variant scans (doi:10.1038/s41586-018-0170-7).

Listed below: yeast fitness (ln) values for each entry.
B1: tRNA (parent)
chain: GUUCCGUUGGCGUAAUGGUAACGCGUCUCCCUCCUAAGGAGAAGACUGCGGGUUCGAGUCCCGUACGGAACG

variants of: B1; experiment: yeast fitness, log relative to wild type (ln ratio); higher = fitter; tRNA-Arg(CCU), competitive growth, 37 C, 1 M NaCl
Lab note: jot down the number only; don't add units.

Field: example entries. Status: answers known.
                     sequence_change  endpoint_value
0                 G1A C27U A69G A70U          -0.216
1  G1A C27U A43C C46U A69G A70G C71U          -0.336

What value of yeast fitness (ln) has been reported for the following variant? U2G G6U A43C C46U C66U C71U
-0.309

What value of yeast fitness (ln) has been reported for the following variant? G1A U2G G6A A43C C46U C66A A70U
-0.191

What value of yeast fitness (ln) has been reported for the following variant? G1A U2G G6A C27U C46U C66U A70U
-0.28

What value of yeast fitness (ln) has been reported for the following variant? `A43C`
0.000879

What value of yeast fitness (ln) has been reported for the following variant? G1A U2C G6A A43C C66U A70G C71U
-0.00743

What value of yeast fitness (ln) has been reported for the following variant? U2G G6U C27U C46U C66A A70G C71U
-0.168
